Values of AC50 reported for Histamine H2 receptor (Homo sapiens) appear below.

Would you please look over these solved cases?
>  <molecule>
Cc1cnc(C(=O)NCCc2ccc(S(=O)(=O)NC(=O)NC3CCCCC3)cc2)cn1 [GLIPIZIDE]

>  <AC50>
> 10 µM

$$$$
>  <molecule>
CCC[C@H](NC(=O)[C@@H]1[C@H]2CCC[C@H]2CN1C(=O)[C@@H](NC(=O)[C@@H](NC(=O)c1cnccn1)C1CCCCC1)C(C)(C)C)C(=O)C(=O)NC1CC1

>  <AC50>
> 10 µM

$$$$
>  <molecule>
CC(CCc1ccc(O)cc1)NCCc1ccc(O)c(O)c1 (centres undefined)

>  <AC50>
> 10 µM

$$$$

Suppose we examine the molecule CCCN[C@H]1CCc2nc(N)sc2C1 [PRAMIPEXOLE] ; what AC50 value has been reported?
3.86 µM

Suppose we examine the molecule CC(N)C(O)c1ccccc1 (centres undefined) ; what AC50 value has been reported?
> 10 µM

Suppose we examine the molecule CCOC(=O)C1=C(C)NC(C)=C(C(=O)OC)C1c1cccc([N+](=O)[O-])c1 (centres undefined) ; what AC50 value has been reported?
> 10 µM

Suppose we examine the molecule COc1ccccc1OCCNCC(O)COc1cccc2[nH]c3ccccc3c12 (centres undefined) ; what AC50 value has been reported?
1.56 µM

Suppose we examine the molecule COc1cc2nc(N3CCN(C(=O)C4CCCO4)CC3)nc(N)c2cc1OC (centres undefined) ; what AC50 value has been reported?
> 10 µM

Suppose we examine the molecule N[C@@H](CC(=O)N1CCn2c(nnc2C(F)(F)F)C1)Cc1cc(F)c(F)cc1F ; what AC50 value has been reported?
> 10 µM

----------
molecular target: D(1B) dopamine receptor (Homo sapiens, UniProt P21918); further: assay procedure not described here
Sequence (P21918 whole entry): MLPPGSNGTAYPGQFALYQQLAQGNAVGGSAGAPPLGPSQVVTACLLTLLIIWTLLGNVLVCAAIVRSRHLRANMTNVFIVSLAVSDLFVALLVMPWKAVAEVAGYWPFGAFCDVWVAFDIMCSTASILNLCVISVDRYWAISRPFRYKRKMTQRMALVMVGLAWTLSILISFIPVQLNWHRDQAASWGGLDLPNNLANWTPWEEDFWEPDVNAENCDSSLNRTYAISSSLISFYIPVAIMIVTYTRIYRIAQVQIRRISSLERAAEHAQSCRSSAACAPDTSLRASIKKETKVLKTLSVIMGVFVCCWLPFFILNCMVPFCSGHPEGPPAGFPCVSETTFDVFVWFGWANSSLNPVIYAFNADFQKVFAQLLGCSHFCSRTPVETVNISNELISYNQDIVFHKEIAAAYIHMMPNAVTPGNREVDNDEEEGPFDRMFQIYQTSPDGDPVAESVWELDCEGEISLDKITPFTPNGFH
reported_property: AC50

>  <compound>
Cc1onc(-c2ccccc2)c1-c1ccc(S(N)(=O)=O)cc1

>  <AC50>
> 10 µM

$$$$
>  <compound>
CN1CCN(C2=Nc3ccccc3Oc3ccc(Cl)cc32)CC1

>  <AC50>
0.248 µM

$$$$
>  <compound>
OC1(c2ccc(Cl)cc2)c2ccccc2C2=NCCN21 (centres undefined)

>  <AC50>
> 10 µM

$$$$

Continue with the compound presented below.
Suppose we examine the compound N[C@@H](CC(=O)N1CCn2c(nnc2C(F)(F)F)C1)Cc1cc(F)c(F)cc1F ; what AC50 value has been reported?
> 10 µM

----------
target: Type-1 angiotensin II receptor (Homo sapiens, UniProt P30556); further: assay procedure not described here
Sequence (P30556 whole entry): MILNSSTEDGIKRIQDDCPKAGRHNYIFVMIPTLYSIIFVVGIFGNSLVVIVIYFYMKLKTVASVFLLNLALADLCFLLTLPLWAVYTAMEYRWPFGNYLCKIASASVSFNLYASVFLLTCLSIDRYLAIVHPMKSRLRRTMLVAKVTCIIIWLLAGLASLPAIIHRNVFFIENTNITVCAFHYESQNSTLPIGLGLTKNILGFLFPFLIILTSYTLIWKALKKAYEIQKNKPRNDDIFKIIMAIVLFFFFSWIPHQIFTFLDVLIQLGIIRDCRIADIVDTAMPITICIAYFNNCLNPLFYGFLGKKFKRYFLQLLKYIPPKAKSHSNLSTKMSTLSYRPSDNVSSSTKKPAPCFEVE
reported_property: AC50

>  <molecule>
CC(C)N(CCC(C(N)=O)(c1ccccc1)c1ccccn1)C(C)C (stereo not given) [DISOPYRAMIDE]

>  <AC50>
> 30 µM

$$$$
>  <molecule>
CC(C(=O)O)c1ccc(-c2ccccc2)c(F)c1 (stereo not given)

>  <AC50>
> 10 µM

$$$$

Enter reported AC50 observed with Type-1 angiotensin II receptor (Homo sapiens, UniProt P30556) for O=C(O)CCNC(=O)c1ccccc1
> 30 µM

Enter reported AC50 observed with Type-1 angiotensin II receptor (Homo sapiens, UniProt P30556) for CCOC(=O)C1=C[C@]2(CC)CCCN3CCc4c(n1c1ccccc41)[C@@H]32
> 30 µM

Enter reported AC50 observed with Type-1 angiotensin II receptor (Homo sapiens, UniProt P30556) for C=CC[C@@H]1/C=C(\C)C[C@H](C)C[C@H](OC)[C@H]2O[C@@](O)(C(=O)C(=O)N3CCCC[C@H]3C(=O)O[C@H](/C(C)=C/[C@@H]3CC[C@@H](O)[C@H](OC)C3)[C@H](C)[C@@H](O)CC1=O)[C@H](C)C[C@@H]2OC [TACROLIMUS ANHYDROUS]
> 30 µM

Enter reported AC50 observed with Type-1 angiotensin II receptor (Homo sapiens, UniProt P30556) for CC1=C(C)C(=O)C(C(CCCCCC(=O)O)c2ccccc2)=C(C)C1=O (stereo not given)
> 30 µM

Enter reported AC50 observed with Type-1 angiotensin II receptor (Homo sapiens, UniProt P30556) for CCN1CCCC1CNC(=O)c1cc(S(=O)(=O)CC)c(N)cc1OC (stereo not given) [AMISULPRIDE]
> 30 µM

Enter reported AC50 observed with Type-1 angiotensin II receptor (Homo sapiens, UniProt P30556) for CN(C)CCC[C@@]1(c2ccc(F)cc2)OCc2cc(C#N)ccc21
> 30 µM

Enter reported AC50 observed with Type-1 angiotensin II receptor (Homo sapiens, UniProt P30556) for COc1ccccc1OCCNCC(O)COc1cccc2[nH]c3ccccc3c12 (stereo not given)
0.255 µM

Enter reported AC50 observed with Type-1 angiotensin II receptor (Homo sapiens, UniProt P30556) for CC(C)(C)C(=O)OCC(=O)[C@H]1CC[C@H]2[C@@H]3CCC4=CC(=O)CC[C@]4(C)[C@H]3CC[C@]12C [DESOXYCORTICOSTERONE PIVALATE]
> 10 µM

Enter reported AC50 observed with Type-1 angiotensin II receptor (Homo sapiens, UniProt P30556) for Oc1ccc2c(c1)CC[C@H](c1ccccc1)[C@@H]2c1ccc(OCCN2CCCC2)cc1
> 30 µM
